# measured on: T1, recombinant human HGF (hepatocyte growth factor) (human, UniProt P14210 32-728)
# T1 construct: Covalently immobilized on the chip for SPR; also called scatter factor
# procedure summary: SPR (ProteOn), human HGF immobilized on GLC chip, DARPin injected, PBS 0.005% Tween 20
pKd: −log10 of the molar value.
measure: pKd

P = DARPin #48 (designed binder) MRGSHHHHHHGSDLGKKLLEAARAGQDDEVRILMANGADVNAKDRFGDTPLHLAADIGHLKIVEVLLKHGADVNAEDWFGNTPLHLAASMGHLEIVEVLLKYGADVNAMDDYGNTPLHLAANTGHLEIVEVLLKHGADVNAQDKFGKTAFDISIDNGNEDLAEILQKLN
Q = DARPin #42 (designed binder) MRGSHHHHHHGSDLGKKLLEAARAGQDDEVRILMANGADVNAKYEDGLTPLHLAAFYGHLEIVEVLLKHGADVNATDAWGHTPLHLAAHYGHLEIVEVLLKYGADVNAIDTLGYTPLHLAANFGHLEIVEVLLKNGADVNAQDKFGKTAFDISIDNGNEDLAEILQKLN
R = DARPin #59 (designed binder) MRGSHHHHHHGSDLGKKLLEAARAGQDDEVRILMANGADVNADDSLGLTPLHLAAASGHLEIVEVLLKNGADVNAVDQNSFTPLYLAANNGHLEIVEVLLKNGADVNAFDWHGTTPLHLAAMFGHLEIVEVLLKNGADVNAQDKFGKTAFDISIDNGNEDLAEILQKLN
List items by pKd in falling order. Could you list the labels in the order requested? P, Q, R
(P: 10.80, Q: 10.08, R: 9.28)
